system: RIOK1; conditions: concentration: 1 μM, replicates: in singlicate; n = 1;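 further: KINOMEscan kinase panel screen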
Measured %Inh of individual entries
Don't forget the unit after the number, please.

Known results for compounds:
{"Compound Structure": "COc1cccc(-n2cnc3c(N)ncnc32)c1", "%Inh": "0%"}
{"Compound Structure": "CCC(=O)c1c(-c2ccccc2)c2cc(Cl)ccc2c(=O)n1Cc1cc(S(C)(=O)=O)n(CC(F)F)n1", "%Inh": "0%"}
{"Compound Structure": "FC(F)(F)c1ccc(-c2ncn(CCCN3CCOCC3)c2-c2ccncc2)cc1", "%Inh": "47%"}

# ---- query compound ----
Short answer for Fc1cccc(CSc2nnc(-c3ccc4c(c3)CCO4)o2)c1 : %Inh was 0%

###

system: ACVR1B; conditions: concentration: 1 μM, replicates: in singlicate; n = 1
Value Kind: %Inh (%)
Value expressed in %; do not type the unit.

{"Compound": "COc1cc2nccc(Nc3cccc(Oc4ccccc4)c3)c2cc1OC.Cl [GW284543]", "%Inh [%]": 12}
{"Compound": "COc1cc2ncn(-c3cc(OCc4ccc(S(C)(=O)=O)cc4)c(C(N)=O)s3)c2cc1OC [GW869979]", "%Inh [%]": 0}
{"Compound": "Cc1c(Cn2c(C)nn3c(=O)cc(N4CCO[C@H](C)C4)nc23)cccc1C(F)(F)F [GSK2373690]", "%Inh [%]": 0}

Let's switch to this compound now.
Cl.c1ccc(Cn2cnc3cc(Nc4ncnc5ccccc45)ccc32)cc1 [GW272142] has a reported %Inh of 0

###

system: EPHB1; conditions: concentration: 1 μM, replicates: in singlicate; n = 1
Value Kind: %Inh (%)
Reply numerically in %, unit not repeated.

{"Compound": "COc1cc2ncn(-c3cc(OCc4ccc(S(C)(=O)=O)cc4)c(C(N)=O)s3)c2cc1OC", "Unit": "%", "%Inh": 9}
{"Compound": "COC(=O)c1c(-c2ccccc2)c2cc(Br)ccc2c(=O)n1Cc1ccc(S(C)(=O)=O)cc1", "Unit": "%", "%Inh": 14}
{"Compound": "Cc1nnc(-c2ccc(C)c(-c3ccc(C(=O)O)cc3)c2)o1", "Unit": "%", "%Inh": 8}
{"Compound": "CCC(=O)c1c(-c2ccccc2)c2cc(Cl)ccc2c(=O)n1Cc1cc(C(=O)NC2CC2)n(C)n1", "Unit": "%", "%Inh": 7}
{"Compound": "CCc1ccc(-c2ccc3c(c2)-c2nn(C)cc2S(=O)(=O)N3C)cc1", "Unit": "%", "%Inh": 0}

// recorded %Inh for Cc1c(Cn2c(C)nn3c(=O)cc(N4CCO[C@H](C)C4)nc23)cccc1C(F)(F)F : 8

%Inh recorded for this compound, Nc1nccc2scc(-c3ccc4c(c3)CCN4C(=O)Cc3ccccc3)c12 , is 0

compound Nc1ncnc2c1ncn2-c1cccc(F)c1 , %Inh observed: 17

Data point: Nc1n[nH]c2ncc(-c3ccccc3)cc12 ; %Inh = 18

Per the record, CCC(=O)c1c(-c2ccccc2)c2cc(Cl)ccc2c(=O)n1Cc1cc(S(C)(=O)=O)n(CC(F)F)n1 has %Inh of 0

So for O=C(NCCNc1ccnc(Nc2ccc(F)cc2)n1)Nc1ccc2c(c1)OCO2 , the logged %Inh turned out to be 18

For Cl.NS(=O)(=O)c1cccc(Nc2cc(-c3ccc(F)cc3)n[nH]2)c1 the compound record lists %Inh as 0

Field %Inh (entry O=C(Nc1n[nH]c2cc(-c3ccccc3F)ccc12)C1CC1 ) reads 4

Form field %Inh, entry Cn1c(=O)c(F)c(Nc2ccc(I)cc2F)c2c(=O)n(OC[C@H](O)CO)cnc21 : 20

Per the record, COC(=O)c1c(-c2ccccc2)c2cc(C)ccc2c(=O)n1Cc1ccccc1 has %Inh of 0

Lookup result for Nc1ncnc2c1ncn2-c1ccc(Cl)cc1 ; measured %Inh: 9

The reported value for Nc1nc(N)c2nc(-c3ccccc3)[nH]c2n1 in terms of %Inh is 18

Data point: COc1cc2nccc(Nc3cccc(Oc4ccccc4)c3)c2cc1OC.Cl ; %Inh = 11

###

A collection of compounds and their measured %Inh
test system: CSNK1G3; conditions: concentration: 1 μM, replicates: in singlicate; n = 1
// return numeric value only (unit: %, not printed)

{"Compound": "CCS(=O)(=O)c1ccc(OC)c(Nc2ncc(-c3ccc(F)cc3)o2)c1.Cl", "%Inh [%]": 8}
{"Compound": "Cc1ccc(Oc2ccc(Nc3ncnc4cc[nH]c34)cc2C)cn1", "%Inh [%]": 0}
{"Compound": "COc1cccc(C2=C(N(C)c3ccccc3)C(=O)NC2=O)c1", "%Inh [%]": 2}
{"Compound": "O=C(Nc1n[nH]c2cc(-c3ccccc3F)ccc12)C1CC1", "%Inh [%]": 10}
{"Compound": "Nc1n[nH]c2nnc(-c3ccccc3)c(-c3ccccc3)c12", "%Inh [%]": 0}

Summary for this compound, COc1ccc(-c2cc3c(C)nc(N)nc3n([C@H]3CC[C@H](O)CC3)c2=O)cn1 : %Inh is 0

// sample Nc1ncnc2c1ncn2-c1ccc(Cl)cc1 , its %Inh was 17

// sample COc1cc2ncn(-c3cc(OCc4ccncc4Br)c(C(N)=O)s3)c2cc1OC , its %Inh was 0

###

test system: ANKK1; details: concentration: 1 μM, replicates: in singlicate; n = 1
Value Kind: %Inh (%)
Write it as a number; the unit % goes unstated.

The examples below pair each entry with its known result.
{"Compound": "CCC(=O)c1c(-c2ccccc2)c2cc(Cl)ccc2c(=O)n1Cc1cc(C(=O)NC2CC2)n(C)n1", "Numeric Result": 0}
{"Compound": "O=C(NCc1cccs1)c1cc(C(=O)c2c(Cl)cccc2Cl)c[nH]1", "Numeric Result": 0}
{"Compound": "COc1cc2nccc(Nc3cccc(Oc4ccccc4)c3)c2cc1OC.Cl", "Numeric Result": 0}
{"Compound": "CN1C(=O)C(Nc2cc(Cl)c(O)c(Cl)c2)=C(c2ccc(Cl)cc2)C1=O", "Numeric Result": 0}
{"Compound": "Nc1nc(N)c2nc(-c3ccccc3)[nH]c2n1", "Numeric Result": 63}

Consider Nc1n[nH]c2ncc(-c3ccccc3)cc12 . Its measured %Inh is 28

Quick note, %Inh for Fc1cccc(CSc2nnc(-c3ccc4c(c3)CCO4)o2)c1 landed at 35

// %Inh value for Cl.c1ccc(Cn2cnc3cc(Nc4ncnc5ccccc45)ccc32)cc1 : 0

// %Inh lookup, compound = COc1ccc(Nc2nccc(N3CCC(NS(=O)(=O)c4ccc(NC(C)=O)cc4)C3)n2)cc1 (stereo not drawn) , result: 8

// sample CCn1c(-c2nonc2N)nc2ccccc21 , its %Inh was 51

Notebook: COC(=O)c1c(-c2ccccc2)c2cc(Br)ccc2c(=O)n1Cc1ccc(NC(=O)CCC(=O)O)cc1 , %Inh read as 0

// Nc1ncnc2c1ncn2-c1cccc2ccccc12 : %Inh value = 0

Field %Inh (entry O=C1NC(=O)C(c2ccccc2)=C1Nc1cccc(O)c1 ) reads 0

# compound OCCCNc1nccc(-c2c(-c3cccc(C(F)(F)F)c3)nn3cc(C(F)(F)F)ccc23)n1 ; its %Inh = 5

Value of %Inh reported for the compound Cc1ccc(Oc2ccc(Nc3ncnc4cc[nH]c34)cc2C)cn1 is 5

The compound listed as Cc1cc(Nc2nc(-c3cccc(C)n3)nc3ccccc23)ccn1 shows %Inh equal to 0

###

Quick reference: %Inh of the listed items.
tested on: PKMYT1; details: concentration: 1 μM, replicates: in singlicate; n = 1
The reply should be a number in %, with the unit left off.

{"Compound Structure": "Cc1cccc(-c2nc(Nc3ccc4c(cnn4C)c3)c3ccccc3n2)n1", "Value Kind": "%Inh", "Numeric Result": 4}

Data point: CCCC(=O)Nc1n[nH]c2ncc(-c3cccc4ccccc34)cc12 ; %Inh = 22

Value of %Inh reported for the compound Cc1ccc(Oc2ccc(Nc3ncnc4cc[nH]c34)cc2C)cn1 is 8

// %Inh value for CN(C)c1cc(-c2ccc3c(N)n[nH]c3c2)nc(N)n1 : 0

The compound CCC(=O)c1c(-c2ccccc2)c2cc(Cl)ccc2c(=O)n1Cc1cc(S(C)(=O)=O)n(CC(N)=O)n1 showed %Inh equal to 0

###

system: TLK1; conditions: concentration: 1 μM, replicates: in singlicate; n = 1
Value Kind: %Inh

Sample answers from the record:
{"Compound Structure": "Cc1c(Cn2c(C)nn3c(=O)cc(N4CCO[C@H](C)C4)nc23)cccc1C(F)(F)F", "Study Target": "TLK1", "%Inh": "0%"}
{"Compound Structure": "CN1C(=O)C(Nc2ccccc2)=C(c2ccccc2)C1=O", "Study Target": "TLK1", "%Inh": "3%"}

%Inh for TLK1 with input FC(F)(F)c1ccc(-c2ncn(CCCN3CCOCC3)c2-c2ccncc2)cc1 equals 0%

# COc1cc2nccc(Nc3cccc(Oc4ccccc4)c3)c2cc1OC.Cl with TLK1: %Inh is 0%

Values from paper PMC5540273
